system.tested: T1, Peptide 8: Biotin-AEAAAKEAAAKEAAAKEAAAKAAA-Tyr-acid (N-terminal biotin; C-terminal acid)
T1 construct: Control peptide without PC
T1 peptide: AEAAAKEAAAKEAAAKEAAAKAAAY
assay.remarks: scFv ELISA
property: OD450 (OD450)
Reply numerically in OD450, unit not repeated.

Here's what some known entries look like.
1. PcOxP_DB03_B10 (scFv, V domains shown, scFv in periplasmic extract) VH: EVQLLESGGGLVQPGGSLRLSCAASGFTFSDYYMEWVRQAPGKGLEWVAASRNKANDYNTEYADSVKGRFTISRDNSKNTLYLQMNSLRAEDTAVYYCARDYYGSSYWYFDVWGQGTLVTVSS VL: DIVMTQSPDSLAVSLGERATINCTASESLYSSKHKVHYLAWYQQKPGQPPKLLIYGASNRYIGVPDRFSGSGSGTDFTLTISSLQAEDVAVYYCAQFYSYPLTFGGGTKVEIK : 0.05
2. PcOxP_DB03_E11 (scFv, V domains shown, scFv in periplasmic extract) VH: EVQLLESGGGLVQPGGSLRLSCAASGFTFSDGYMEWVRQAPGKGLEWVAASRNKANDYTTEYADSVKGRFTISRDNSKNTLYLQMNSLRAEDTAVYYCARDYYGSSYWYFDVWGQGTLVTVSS VL: DIVMTQSPDSLAVSLGERATINCKSSESLYSSKNKVHYLAWYQQKPGQPPKLLIYGASNRYIGVPDRFSGSGSGTDFTLTISSLQAEDVAVYYCAQFYHYPLTFGGGTKVEIK : 0.04
3. PcOxP_DB04_E06 (scFv, V domains shown, scFv in periplasmic extract) VH: EVQLLESGGGLVQPGGSLRLSCAASGFTGSDFYMEWVRQAPGKGLEWVAASRNKANDYTTEYADSVKGRFTISRDNSKNTLYLQMNSLRAEDTAVYYCARDYYGSPYWYFDVWGQGTLVTVSS VL: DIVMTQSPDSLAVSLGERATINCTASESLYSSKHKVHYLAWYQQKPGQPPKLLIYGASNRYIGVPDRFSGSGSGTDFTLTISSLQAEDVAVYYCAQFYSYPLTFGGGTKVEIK : 0.05

Looking for the measured OD450 of PcOxP_DB03_H10 (scFv, V domains shown, scFv in periplasmic extract) VH: EVQLLESGGGLVQPGGSLRLSCAASGFTFDDFYMEWVRQAPGKGLEWVAASRNEANDYTTEYADSVKGRFTISRDNSKNTLYLQMNSLRAEDTAVYYCARDYYGSSYWYFDVWGQGTLVTVSS VL: DIVMTQSPDSLAVSLGERATINCTASESLYSSKHKVHYLAWYQQKPGQPPKLLIYGAGNRYIGVPDRFSGSGSGTDFTLTISSLQAEDVAVYYCAQFYHYPLTFGGGTKVEIK , can you help?
0.07

Cool, now PcOxP_DB02_E12 (scFv, V domains shown, scFv in periplasmic extract) VH: EVQLLESGGGLVQPGGSLRLSCAASGFGFSDFYMEWVRQAPGKGLEWVAASRNKANDYTTEYADSVKGRFTISRDNSKNTLYLQMNSLRAEDTAVYYCARDYYGSSYWYFDVWGQGTLVTVSS VL: DIVMTQSPDSLAVSLGERATINCTASESLYSSKHKVHYLAWYQQKPGQPPKLLIYGASNRYIGVPDRFSGSGSGTDFTLTISSLQAEDVAVYYCAEFYSYPLTFGGGTKVEIK
0.06
